# assay_explanation: A CellTox Green Cytotoxicity Assay to monitor cytotoxicity in HEK293 cells - 24 hour (AID 1224875); note: nearly all actives have a fitted effect of over 45% in size
# applied_conditions: CellTox Green fluorescence; series mostly up to 76.8 µM
Results filed as inconclusive are left out. Activity calls are given as the source filed them. Calls come from the whole dose curve; as a rule, active = well fitted activation curve with a large enough effect in the repeat runs; inconclusive = weak or mixed curves; inactive = flat fitted curve, though single readings scatter.
Outcome field: choose from 1 = active, -1 = inactive

Worked set:
record_smiles | classification
COc1cccc(N)c1 | -1
C/C(=C(/OCCOc1ccc(Cl)cc1)c1ccc(Cl)cc1Cl)n1ccnc1 | -1
CN(C)[C@@H]1C(=O)C(C(N)=O)=C(O)[C@@]2(O)C(=O)C3=C(O)c4c(O)ccc(Cl)c4[C@@H](O)[C@H]3C[C@@H]12 | -1
O=c1c(-c2ccccc2)c1-c1ccccc1 | 1

Input: Test call for this compound, please: `O=C1c2c(O)ccc(Nc3ccc(CCO)cc3)c2C(=O)c2c([N+](=O)[O-])ccc(O)c21`
Output: -1
